TARGET: met (HGF receptor) in human gastric cancer cells MKN45 (Homo sapiens)
Construct: endogenous in cells
PROTOCOL TEXT: Inhibitory activity against met-autophosphorylation using ELISA method (2), MKN45 cells, HGF-independent
Exam item: assign fulfilled to entries whose IC50 is below 0.3 µM and not fulfilled to entries at or above 0.3 µM. Note that a value of exactly 0.3 µM receives not fulfilled.

COc1cc2c(Oc3ccc(NC(=S)NC(=O)Cc4ccccc4)cc3F)ccnc2cc1OCCN1CCOCC1: fulfilled
COc1cc2nccc(Oc3ccc(NC(=O)CC(=O)NC4CCCCC4)cc3)c2cc1OC: not fulfilled
COc1cc2nccc(Oc3ccc(NC(=S)NC(=O)Cc4c(F)ccc(F)c4F)c(F)c3)c2cc1OC: fulfilled
COc1cc2nccc(Oc3ccc(NC(=O)NC(=O)Nc4ccccc4SC)cc3)c2cc1OC: not fulfilled
CCOCCC(=O)NC(=S)Nc1ccc(Oc2ccnc3cc(OC)c(OC)cc23)c(F)c1: not fulfilled
COc1cc2nccc(Oc3ccc(NC(=O)NC(=O)Nc4cccc(F)c4)cc3)c2cc1OC: not fulfilled
COc1cc2nccc(Oc3ccc(NC(=S)NC(=O)CCCC(C)C)cc3)c2cc1OC: fulfilled

* * *

TARGET: met (HGF receptor) in human gastric cancer cells MKN45 (Homo sapiens, UniProt P08581)
Construct: endogenous in cells
Sequence (P08581 25-1390): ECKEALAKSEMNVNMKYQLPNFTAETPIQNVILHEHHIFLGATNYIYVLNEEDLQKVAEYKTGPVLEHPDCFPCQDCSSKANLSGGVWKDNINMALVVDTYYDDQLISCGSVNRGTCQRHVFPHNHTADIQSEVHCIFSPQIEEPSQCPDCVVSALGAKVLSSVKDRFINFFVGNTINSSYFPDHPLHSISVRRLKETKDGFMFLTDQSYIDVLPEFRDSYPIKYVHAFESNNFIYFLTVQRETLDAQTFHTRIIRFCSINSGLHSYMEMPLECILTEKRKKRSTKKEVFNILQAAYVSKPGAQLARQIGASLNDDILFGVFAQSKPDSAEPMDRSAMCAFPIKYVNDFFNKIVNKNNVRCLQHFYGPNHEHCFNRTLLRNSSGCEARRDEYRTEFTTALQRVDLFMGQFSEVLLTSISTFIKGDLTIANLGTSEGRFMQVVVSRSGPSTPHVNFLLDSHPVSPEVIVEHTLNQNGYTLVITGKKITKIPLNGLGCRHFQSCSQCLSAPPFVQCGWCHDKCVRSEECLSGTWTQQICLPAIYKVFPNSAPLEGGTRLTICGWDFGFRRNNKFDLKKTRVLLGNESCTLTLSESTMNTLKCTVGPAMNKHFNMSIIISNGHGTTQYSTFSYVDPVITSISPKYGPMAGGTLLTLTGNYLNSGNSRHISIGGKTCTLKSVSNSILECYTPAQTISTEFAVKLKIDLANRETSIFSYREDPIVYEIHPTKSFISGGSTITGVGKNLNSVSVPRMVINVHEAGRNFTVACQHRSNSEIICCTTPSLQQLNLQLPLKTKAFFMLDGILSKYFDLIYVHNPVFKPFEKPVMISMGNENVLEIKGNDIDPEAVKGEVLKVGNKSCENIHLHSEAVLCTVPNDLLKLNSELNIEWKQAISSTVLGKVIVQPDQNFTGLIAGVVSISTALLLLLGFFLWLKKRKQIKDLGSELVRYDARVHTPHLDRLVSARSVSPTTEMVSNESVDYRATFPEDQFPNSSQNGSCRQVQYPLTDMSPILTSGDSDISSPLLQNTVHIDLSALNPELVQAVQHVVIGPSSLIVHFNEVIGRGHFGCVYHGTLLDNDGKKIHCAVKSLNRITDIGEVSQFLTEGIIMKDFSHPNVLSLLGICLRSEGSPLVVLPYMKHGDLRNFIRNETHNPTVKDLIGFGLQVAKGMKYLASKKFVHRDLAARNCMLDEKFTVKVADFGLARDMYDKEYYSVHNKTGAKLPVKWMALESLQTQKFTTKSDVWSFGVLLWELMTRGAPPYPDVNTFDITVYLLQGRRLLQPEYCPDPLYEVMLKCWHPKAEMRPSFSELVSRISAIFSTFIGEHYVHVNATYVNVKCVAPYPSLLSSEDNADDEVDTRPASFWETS
PROTOCOL TEXT: Inhibitory activity against met-autophosphorylation using ELISA method (2), MKN45 cells, HGF-independent
pIC50: −log10 of the molar value.
Collected pIC50 values appear next to each entry.
MEASUREMENT NAME: pIC50

COc1cc2nccc(Oc3ccc(NC(=S)NC(=O)Cc4ccccc4)cc3Cl)c2cc1OC: 7.61
COc1cc2nccc(Oc3ccc(NC(=O)NC(=O)Nc4ccccc4Cc4ccccc4)cc3)c2cc1OC: 5.54
COc1cc2nccc(Oc3ccc(NC(=O)NC(=O)Nc4cc(C)on4)cc3)c2cc1OC: 6.59
COc1cc2nccc(Oc3ccc(NC(=S)NC(=O)Cc4cccs4)cc3)c2cc1OC: 7.10
COc1cc2nccc(Oc3ccc(NC(=O)NC(=O)CN4CCc5ccccc54)cc3Cl)c2cc1OC: 6.53
COc1cc2nccc(Oc3ccc(NC(=O)NC(=O)Cc4ccc(F)c(F)c4)cc3F)c2cc1OC: 7.38
COc1cc2nccc(Oc3ccc(NC(=O)NC(=O)Nc4ccccc4Br)cc3)c2cc1OC: 6.19
COc1cc2nccc(Oc3ccc(NC(=O)NC(=O)CN4CCc5ccccc54)cc3F)c2cc1OC: 6.52
COc1cc2nccc(Oc3ccc(NC(=S)NC(=O)Cc4ccc(F)cc4)cc3)c2cc1OC: 7.52
COc1cc2nccc(Oc3ccc(NC(=O)NC(=O)Nc4ccccc4Cl)cc3)c2cc1OC: 6.02
COc1cc2nccc(Oc3ccc(NC(=S)NC(=O)Cc4ccccc4Cl)cc3Cl)c2cc1OC: 6.65
COc1cc2nccc(Oc3ccc(NC(=O)NC(=O)Nc4ccc(C)cc4)cc3)c2cc1OC: 6.54
COc1cc2nccc(Oc3ccc(NC(=O)NC(=O)Cc4cc(F)cc(F)c4)c(F)c3)c2cc1OC: 6.47
COc1cc2c(Oc3ccc(NC(=O)NC(=O)Cc4ccccc4)cc3F)ccnc2cc1OCCN1CCCCC1: 6.85
COc1ccccc1CC(=O)NC(=S)Nc1ccc(Oc2ccnc3cc(OC)c(OC)cc23)cc1F: 6.56
COc1cc2c(Oc3ccc(NC(=S)NC(=O)Cc4ccccc4F)cc3F)ccnc2cc1OCCN1CCOCC1: 7.60
COc1cc2c(Oc3ccc(NC(=S)NC(=O)Cc4ccc(F)cc4)cc3F)ccnc2cc1OCC(O)CN1CCCC1 (stereo not shown): 7.69
COc1cc2nccc(Oc3ccc(NC(=O)NC(=O)Cc4ccccc4F)cc3)c2cc1OC: 6.85
COc1cc2nccc(Oc3ccc(NC(=O)NC(=O)CN4CCCC4)cc3Cl)c2cc1OC: 5.74
COc1cc2nccc(Oc3ccc(NC(=S)NC(=O)Cc4c(Cl)cccc4Cl)cc3F)c2cc1OC: 7.42
COC(=O)c1cccc(NC(=O)CC(=O)Nc2ccc(Oc3ccnc4cc(OC)c(OC)cc34)cc2)c1: 5.62
COc1cc2c(Oc3ccc(NC(=S)NC(=O)Cc4ccccc4F)cc3F)ccnc2cc1OCC(O)CN1CCOCC1 (stereo not shown): 7.68
COc1cc2nccc(Oc3ccc(NC(=O)NC(=O)Cc4ccc(F)c(F)c4)c(F)c3)c2cc1OC: 6.64
COc1ccccc1NC(=O)NC(=O)Nc1ccc(Oc2ccnc3cc(OC)c(OC)cc23)cc1: 6.74
COc1cc2c(Oc3ccc(NC(=S)NC(=O)Cc4cccc(Cl)c4)cc3F)ccnc2cc1OCC(O)CN1CCCCC1 (stereo not shown): 6.90
COc1cc2nccc(Oc3ccc(NC(=O)NC(=O)Nc4ccc([N+](=O)[O-])cc4)cc3)c2cc1OC: 6.44
COc1cc2nccc(Oc3ccc(NC(=O)NC(=O)CSC4CCCCC4)c(F)c3)c2cc1OC: 6.31
COc1cc2nccc(Oc3ccc(NC(=S)NC(=O)Cc4cc(F)ccc4F)c(F)c3)c2cc1OC: 6.77
COc1cc2nccc(Oc3ccc(NC(=O)NC(=O)CN4CCCc5cc(C)ccc54)c(F)c3)c2cc1OC: 6.35
CCN(CC)CCCOc1cc2nccc(Oc3ccc(NC(=O)NC(=O)Cc4ccccc4F)cc3F)c2cc1OC: 7.68
COc1cc2c(Oc3ccc(NC(=S)NC(=O)Cc4ccccc4F)cc3F)ccnc2cc1OCCCN1CCOCC1: 7.65
